Listed here: items and their measured IC50.
Molecular target: c-Kit (Homo sapiens (Human), UniProt P10721)
Sequence (P10721 26-976): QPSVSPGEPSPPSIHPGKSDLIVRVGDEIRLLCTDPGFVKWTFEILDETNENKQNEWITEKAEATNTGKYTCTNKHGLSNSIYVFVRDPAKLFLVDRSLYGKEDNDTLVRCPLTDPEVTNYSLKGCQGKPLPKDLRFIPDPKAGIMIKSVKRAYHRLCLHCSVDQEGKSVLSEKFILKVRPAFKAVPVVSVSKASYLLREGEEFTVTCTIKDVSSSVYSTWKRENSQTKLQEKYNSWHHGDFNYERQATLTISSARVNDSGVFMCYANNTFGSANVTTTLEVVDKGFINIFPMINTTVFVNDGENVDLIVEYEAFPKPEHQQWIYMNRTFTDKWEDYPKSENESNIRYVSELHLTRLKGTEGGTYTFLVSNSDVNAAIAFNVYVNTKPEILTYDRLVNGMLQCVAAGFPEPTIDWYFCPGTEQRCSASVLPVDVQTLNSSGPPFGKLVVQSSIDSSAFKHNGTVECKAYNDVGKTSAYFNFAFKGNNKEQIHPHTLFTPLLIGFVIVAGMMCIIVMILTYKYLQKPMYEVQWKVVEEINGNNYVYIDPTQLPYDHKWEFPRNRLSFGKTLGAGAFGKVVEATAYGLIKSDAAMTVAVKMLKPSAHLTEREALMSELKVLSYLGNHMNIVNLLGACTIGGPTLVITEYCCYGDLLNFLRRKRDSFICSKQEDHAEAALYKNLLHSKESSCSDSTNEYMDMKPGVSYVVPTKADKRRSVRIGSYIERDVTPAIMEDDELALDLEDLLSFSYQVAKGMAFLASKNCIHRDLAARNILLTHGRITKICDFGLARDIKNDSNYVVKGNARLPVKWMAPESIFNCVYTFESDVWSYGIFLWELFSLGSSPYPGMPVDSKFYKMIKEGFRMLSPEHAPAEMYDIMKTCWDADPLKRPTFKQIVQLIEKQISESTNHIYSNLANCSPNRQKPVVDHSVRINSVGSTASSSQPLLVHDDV
Assay: Inhibition of c-Kit kinase activity (HTRF KinEASE-TK)
Type: biochemical
Details: biochemical, HTRF KinEASE-TK

The cases that follow already have their IC50 on record.
| molecule | test.system | IC50 |
| --- | --- | --- |
| Cc1ncc(C(=O)Nc2cc(C(=O)Nc3ccnc(CC4CC4)n3)c(F)cc2C)s1 [Example 100] | c-Kit (Homo sapiens (Human), UniProt P10721) | 0.1 to 1 µM |
| Cc1cc(F)c(C(=O)Nc2ccn(-c3ccccn3)n2)cc1NC(=O)c1cnc(N)s1 [Example 168] | c-Kit (Homo sapiens (Human), UniProt P10721) | < 0.1 µM |

In: For Cc1cc(F)c(C(=O)Nc2nc3c(s2)COCC3)cc1NC(=O)c1cnc(N)s1 [Example 145] , what is its reported IC50?
Out: < 0.1 µM

Data credit: patent US20250145606A1
